Target: RORγ-LBD (Homo sapiens, UniProt P51449)
Construct: made in house; host or cells: SF9 cells (baculovirus); used as diluted lysate
Experiment: RORγ-Ligand Binding Domain (LBD) TR-FRET Assay
Type: biochemical
Details: RORγ-LBD TR-FRET assay
Reported EC50 values follow for various compounds

Asked: Give the reported value of EC50 for this record: CCOC(=O)C1CCN(CCC[C@H]2CN(S(=O)(=O)c3cccc(C(F)(F)F)c3)c3cc(/C=C(\C)c4c(F)cccc4Cl)ccc3O2)CC1 [Example 119E]
Given back: < 500 nM

Asked: Give the reported value of EC50 for this record: C/C(=C\c1ccc2c(c1)N(S(=O)(=O)c1cccc(C(F)(F)F)c1)C[C@H](CCNS(=O)(=O)C1CC1)O2)c1c(F)cccc1Cl [Example 116A]
Given back: < 500 nM

---

Molecular target: Gal4-RORγ-LBD (Homo sapiens)
Construct: expressed in transfected cells
Sequence (P51449 269-508 limits assumed): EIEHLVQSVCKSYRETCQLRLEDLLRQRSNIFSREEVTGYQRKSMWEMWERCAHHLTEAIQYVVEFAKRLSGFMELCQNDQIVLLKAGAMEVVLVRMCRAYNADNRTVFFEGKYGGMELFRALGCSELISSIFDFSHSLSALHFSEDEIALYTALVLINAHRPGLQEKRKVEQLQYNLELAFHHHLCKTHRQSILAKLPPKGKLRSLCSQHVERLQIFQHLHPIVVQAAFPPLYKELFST
Assay: Gal4-RORγ Luciferase Reporter Assay in HEK-293T Cells
Format: cell-based
Conditions: HEK-293 cells, luciferase reporter, with ursolic acid
pEC50: −log10 of the molar value.
Measurement Kind: pEC50

Asked: Provide pEC50, system Gal4-RORγ-LBD (Homo sapiens), entry CCOc1nn(CC)cc1S(=O)(=O)N1C[C@H](CCC(=O)O)Oc2ccc(/C=C/c3ccccc3F)cc21 [Example 89AM]
Given back: < 5.00

Asked: Provide pEC50, system Gal4-RORγ-LBD (Homo sapiens), entry CCOc1ncc(C(F)(F)F)cc1S(=O)(=O)N1C[C@H](CCC(=O)O)Oc2ccc(/C=C/c3c(F)cccc3Cl)cc21 [Example 89DU]
Given back: 5.30 to 6.30

Asked: Provide pEC50, system Gal4-RORγ-LBD (Homo sapiens), entry CCOc1nn(CC)cc1S(=O)(=O)N1C[C@H](CCC(=O)OC)Oc2ccc(/C=C/c3c(F)cccc3C(F)(F)F)cc21
Given back: 5.30 to 6.30

---

Reported EC50 values follow for various compounds
Biological target: RORγ-LBD (Homo sapiens)
Construct: made in house; host or cells: SF9 cells (baculovirus); used as diluted lysate
Sequence (P51449 269-508 limits assumed): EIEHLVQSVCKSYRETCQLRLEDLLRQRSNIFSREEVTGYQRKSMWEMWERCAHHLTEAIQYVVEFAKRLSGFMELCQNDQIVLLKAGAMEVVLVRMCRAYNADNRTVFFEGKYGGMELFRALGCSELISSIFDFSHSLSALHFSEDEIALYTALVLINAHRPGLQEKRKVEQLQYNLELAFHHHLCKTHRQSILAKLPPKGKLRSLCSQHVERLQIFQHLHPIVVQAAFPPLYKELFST
Assay: RORγ-Ligand Binding Domain (LBD) TR-FRET Assay
Assay type: biochemical
Details: RORγ-LBD TR-FRET

Compound	EC50
COC(=O)CC[C@H]1CN(S(=O)(=O)c2cccc(C(F)F)c2)c2cc(/C=C/c3c(Cl)cccc3C(F)(F)F)ccc2O1	< 500 nM
CCOc1nn(CC)cc1S(=O)(=O)N1C[C@H](CCC(=O)OC)Oc2ccc(/C=C/c3ccc(Cl)cc3)cc21 [Example 89DA]	> 10000 nM
COC(=O)CC[C@H]1CN(S(=O)(=O)c2cccc(C(F)F)c2)c2cc(/C=C/c3c(Cl)cccc3C(F)F)ccc2O1 [Example 89EQ]	< 500 nM
O=C(O)CC[C@H]1CN(S(=O)(=O)c2cccc(C(F)(F)F)c2)c2cc(/C=C/c3cccc(F)c3Cl)ccc2O1 [Example 89BP]	< 500 nM
Cn1cc(/C=C/c2ccc3c(c2)N(S(=O)(=O)c2cccc(C(F)(F)F)c2)C[C@H](CCC(=O)O)O3)c(C(F)(F)F)n1 [Example 89BY]	> 10000 nM
CCOc1ncc(C(F)(F)F)cc1S(=O)(=O)N1C[C@H](CCC(=O)O)Oc2ccc(/C=C/c3c(F)cccc3Cl)cc21 [Example 89DU]	< 500 nM
CCc1ccccc1/C=C/c1ccc2c(c1)N(S(=O)(=O)c1cccc(OC(F)F)c1)C[C@H](CCC(=O)OC)O2 [Example 89AX]	< 500 nM
CCOc1nn(CC)cc1S(=O)(=O)N1C[C@H](CCC(=O)OC)Oc2ccc(/C=C/c3cccs3)cc21 [Example 89P]	500 to 5000 nM
Cn1ccnc1/C=C/c1ccc2c(c1)N(S(=O)(=O)c1cccc(C(F)(F)F)c1)C[C@H](CCC(=O)O)O2 [Example 89BU]	5000 to 10000 nM
COC(=O)CC[C@H]1CN(S(=O)(=O)c2cccc(C(F)(F)F)c2)c2cc(/C=C(\C)c3ccccc3C)ccc2O1 [Example 86AL]	< 500 nM

Asked: Give the reported value of EC50 for this record: COC(=O)CC[C@H]1CN(S(=O)(=O)c2cccc(C(F)(F)F)c2)c2cc(/C=C/c3cccc(F)c3Cl)ccc2O1 [Example 89BQ]
Given back: < 500 nM

Asked: Give the reported value of EC50 for this record: CCOc1ncc(C(F)(F)F)cc1S(=O)(=O)N1C[C@H](CCC(=O)OC)Oc2ccc(C=C3CCCCC3)cc21 [Example 95A]
Given back: 500 to 5000 nM

Asked: Give the reported value of EC50 for this record: COC(=O)CC[C@H]1CN(S(=O)(=O)c2cccc(OC(F)(F)F)c2)c2cc(/C=C(\C)c3c(F)cccc3Cl)ccc2O1 [Example 86T]
Given back: < 500 nM

Asked: Give the reported value of EC50 for this record: O=S(=O)(c1cccc(C(F)(F)F)c1)N1CCCc2cc(OCCc3ccccc3)ccc21 [Example 25N]
Given back: < 500 nM

Asked: Give the reported value of EC50 for this record: COc1cc(S(=O)(=O)N2CCCc3ccc(O[C@@H]4c5ccccc5C[C@@H]4C)cc32)ccc1F (relative stereo) [Example 25D]
Given back: < 500 nM

Asked: Give the reported value of EC50 for this record: CCOc1ncc(C(F)(F)F)cc1S(=O)(=O)N1C[C@H](CCC(=O)OC)Oc2ccc(/C=C/c3c(F)cccc3Cl)cc21 [Example 89DV]
Given back: < 500 nM

Asked: Give the reported value of EC50 for this record: CCOc1ncc(C(F)(F)F)cc1S(=O)(=O)N1C[C@H](CCC(=O)O)Oc2ccc(/C=C/c3c(Cl)cccc3C(C)(F)F)cc21 [Example 89FG]
Given back: < 500 nM

Asked: Give the reported value of EC50 for this record: O=S(=O)(c1cccc(C(F)(F)F)c1)N1CCCc2cc(C3CC3)c(OCc3c(F)cccc3C3CC3)cc21 [Example 28C]
Given back: < 500 nM

Asked: Give the reported value of EC50 for this record: COc1cc(S(=O)(=O)N2CCCc3ccc(OCc4c(F)cccc4C4CC4)cc32)ccc1F [Example 25T]
Given back: < 500 nM

Asked: Give the reported value of EC50 for this record: O=C(O)CC[C@H]1CN(S(=O)(=O)c2cccc(C(F)(F)F)c2)c2cc(/C=C/c3c(Cl)cc(Cl)cc3Cl)ccc2O1 [Example 89CL]
Given back: 500 to 5000 nM

Asked: Give the reported value of EC50 for this record: O=C(O)CC[C@H]1CN(S(=O)(=O)c2cc(C(F)(F)F)cnc2OCCCO)c2cc(/C=C/c3c(F)cccc3Cl)ccc2O1 [Example 89FC]
Given back: < 500 nM

---

Molecular target: Gal4-RORγ-LBD (Homo sapiens, UniProt P51449)
Construct: expressed in transfected cells
Test: Gal4-RORγ Luciferase Reporter Assay in HEK-293T Cells
Assay type: cell-based
Details: HEK-293 cells, luciferase reporter, in presence of ursolic acid
pEC50: −log10 of the molar value.
Measurement Kind: pEC50

Compound	Measurement Kind	Val
C[C@@H]1[C@H](O)Cc2ccc(/C=C/c3c(F)cccc3Cl)cc2N1S(=O)(=O)c1cccc(C(F)(F)F)c1 (racemic)	pEC50	5.30 to 6.30
CCOC(=O)C(C)(C)CC1CC(S(=O)(=O)c2ccc(F)c(OC)c2)c2cc(/C=C(\C)c3c(F)cccc3Cl)ccc2O1 (stereo not drawn) [Example 186J]	pEC50	5.30 to 6.30
O=S(=O)(c1cccc(C(F)(F)F)c1)N1C[C@H](O)Cc2ccc(OCc3c(F)cccc3Cl)cc21	pEC50	> 6.30
COc1cc(S(=O)(=O)N2C[C@H](CCC(C)(C)O)Oc3ccc(/C=C(\C)c4c(F)cccc4Cl)cc32)ccc1F	pEC50	> 6.30
COc1cc(S(=O)(=O)C2CC(CCC(=O)O)Oc3ccc(/C=C(\C)c4c(F)cccc4Cl)cc32)ccc1F (stereo not drawn) [Example 186G]	pEC50	5.30 to 6.30

Asked: Give the reported value of pEC50 for this record: COc1cc(S(=O)(=O)N2c3cc(OCc4c(F)cccc4Cl)ccc3C=C(CO)[C@H]2C)ccc1F
Given back: > 6.30

Asked: Give the reported value of pEC50 for this record: O=C(O)CC[C@H]1CC(S(=O)(=O)c2cccc(C(F)(F)F)c2)c2cc(OCc3c(F)cccc3Cl)ccc2O1 (stereo in doubt) [Example 186A]
Given back: 5.30 to 6.30

Asked: Give the reported value of pEC50 for this record: COc1cc(S(=O)(=O)N2C[C@H](CNC(=O)c3cccc(C(=O)O)c3)Oc3ccc(/C=C(\C)c4c(F)cccc4Cl)cc32)ccc1F [Example 135A]
Given back: 5.30 to 6.30

Asked: Give the reported value of pEC50 for this record: C/C(=C\c1ccc2c(c1)N(S(=O)(=O)c1cccc(C(F)(F)F)c1)C[C@H](CCC(=O)N1CC(C(=O)O)C1)O2)c1c(F)cccc1Cl [Example 129D]
Given back: > 6.30

// provenance: patent US9896441B2
